# COMPOUND, melting point
records = [
    ("COc1ccc(-n2nnnc2C(F)(F)F)cc1CN1C[C@@H]2CC(NC(=O)CO)CN2[C@H](C(c2ccccc2)c2ccccc2)C1.Cl.Cl (stereo partly drawn)", "155 to 159 °C"),
    ("COc1ccc(-n2nnnc2C(F)(F)F)cc1CN1C[C@@H]2CN(C(=O)N(C)C)CCN2[C@H](C(c2ccccc2)c2ccccc2)C1.Cl.Cl", "158 to 164 °C"),
    ("COc1ccc(-n2nnnc2C(F)(F)F)cc1CN1C[C@@H]2CN(C(=O)CC(F)(F)F)CCN2[C@H](C(c2ccccc2)c2ccccc2)C1.Cl.Cl", "155 to 160 °C"),
]

====

Listing of recorded melting point by entry.
PROPERTY_LABEL: melting point

# COMPOUND, MEASUREMENT
rows = [
    ("CNC(=O)N1CCN2[C@H](CN(Cc3cc(-n4nnnc4C(F)(F)F)ccc3OC)C[C@H]2C(c2ccccc2)c2ccccc2)C1.Cl.Cl", "160 to 170 °C"),
    ("COc1ccc(-n2nnnc2C(F)(F)F)cc1CN1C[C@@H]2CN(C(=O)CCO)CCN2[C@H](C(c2ccccc2)c2ccccc2)C1.Cl.Cl", "147 to 154 °C"),
    ("COc1ccc(-n2nnnc2C(F)(F)F)cc1CN1C[C@@H]2CN(C(=O)CO)CCN2[C@H](C(c2ccccc2)c2ccccc2)C1.Cl.Cl", "140 to 159 °C"),
    ("COc1ccc(-n2nnnc2C(F)(F)F)cc1CN1C[C@@H]2CN(C(N)=O)CCN2[C@H](C(c2ccccc2)c2ccccc2)C1.Cl.Cl", "165 to 190 °C"),
    ("COc1ccc(-n2nnnc2C(F)(F)F)cc1CN1C[C@@H]2CN(C(=O)COC(C)=O)CCN2[C@H](C(c2ccccc2)c2ccccc2)C1.Cl.Cl", "138 to 153 °C"),
    ("COc1ccc(-n2nnnc2C(F)(F)F)cc1CN1C[C@@H]2CN(S(N)(=O)=O)CCN2[C@H](C(c2ccccc2)c2ccccc2)C1.Cl.Cl", "174 to 176 °C"),
    ("COc1ccc(-n2nnnc2C(F)(F)F)cc1CN1C[C@@H]2CN(C(=O)C(C)(C)OC(C)=O)CCN2[C@H](C(c2ccccc2)c2ccccc2)C1.Cl.Cl", "143 to 148 °C"),
    ("COc1ccc(-n2nnnc2CC(F)(F)F)cc1CN1C[C@@H]2CN(C(=O)c3cccnc3)CCN2[C@H](C(c2ccccc2)c2ccccc2)C1.Cl.Cl.Cl", "197 to 200 °C"),
    ("COc1ccc(-n2nnnc2C(F)(F)F)c(OC)c1CN1C[C@@H]2CN(C(=O)CO)CCN2[C@H](C(c2ccccc2)c2ccccc2)C1.Cl.Cl", "128 to 132 °C"),
    ("COc1ccc(-n2nnnc2C(F)(F)F)cc1CN1C[C@@H]2CN(C(=O)C3CCCC3)CCN2[C@H](C(c2ccccc2)c2ccccc2)C1.Cl.Cl", "170 to 178 °C (dec.)"),
    ("COc1ccc(-n2nnnc2C(F)(F)F)cc1CN1C[C@@H]2CN(C3CCC3)CCN2[C@H](C(c2ccccc2)c2ccccc2)C1.Cl.Cl.Cl", "184 to 187 °C"),
    ("COc1ccc(-n2nnnc2C(F)(F)F)cc1CN1C[C@@H]2CN(S(=O)(=O)CS(C)(=O)=O)CCN2[C@H](C(c2ccccc2)c2ccccc2)C1.Cl.Cl", "162 to 168 °C"),
    ("COc1ccc(-n2nnnc2C(F)(F)F)cc1CN1C[C@@H]2CN(C(C=O)C(=O)N(C)C)CCN2[C@H](C(c2ccccc2)c2ccccc2)C1.Cl.Cl (stereo partly shown)", "155 to 168 °C"),
]

====

Listing of recorded melting point by entry.

# ITEM_SMILES, melting point
data = [
    ("COc1ccc(-n2nnnc2C(F)(F)F)cc1CN1C[C@@H]2CN(CC(C)=O)CCN2[C@H](C(c2ccccc2)c2ccccc2)C1.Cl.Cl.Cl", "175 to 179 °C"),
    ("COc1ccc(-n2nnnc2C(F)(F)F)cc1CN1C[C@@H]2CN(S(=O)(=O)N(C)C)CCN2[C@H](C(c2ccccc2)c2ccccc2)C1.Cl.Cl", "148 to 152 °C"),
    ("COCCC(=O)N1CCN2[C@H](CN(Cc3cc(-n4nnnc4C(F)(F)F)ccc3OC)C[C@H]2C(c2ccccc2)c2ccccc2)C1.Cl.Cl", "132 to 135 °C"),
    ("COc1ccc(-n2nnnc2C(F)(F)F)cc1CN1C[C@@H]2CN(C(=O)C3CCCCC3)CCN2[C@H](C(c2ccccc2)c2ccccc2)C1.Cl.Cl", "169 to 174.5 °C"),
    ("COc1ccc(-n2nnnc2C(F)(F)F)cc1CN1C[C@@H]2CN(C(=O)[C@H](C)O)CCN2[C@H](C(c2ccccc2)c2ccccc2)C1.Cl.Cl", "150 to 158 °C"),
    ("COc1ccc(-n2nnnc2C(F)(F)F)cc1CN1C[C@@H]2CN(c3cccnc3)CCN2[C@H](C(c2ccccc2)c2ccccc2)C1.Cl.Cl.Cl", "175 to 178 °C"),
]
